Each entry below carries its reported pEC50.
Molecular target: human TGR5 receptor (Homo sapiens)
Sequence (Q8TDU6 whole entry): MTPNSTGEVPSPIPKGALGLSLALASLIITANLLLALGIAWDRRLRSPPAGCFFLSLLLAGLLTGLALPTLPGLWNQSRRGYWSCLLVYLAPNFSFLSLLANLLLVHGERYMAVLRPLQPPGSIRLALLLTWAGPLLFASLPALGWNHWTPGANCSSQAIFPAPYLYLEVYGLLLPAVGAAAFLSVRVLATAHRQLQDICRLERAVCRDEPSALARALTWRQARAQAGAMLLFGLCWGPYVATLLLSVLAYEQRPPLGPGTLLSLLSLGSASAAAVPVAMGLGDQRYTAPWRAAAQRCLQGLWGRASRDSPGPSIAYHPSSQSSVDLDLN
Test: Human TGR5 cAMP production assay (hTGR5-CHO cells, DiscoveRx cAMP XS+ kit)
Settings: luminescent cAMP assay, read-out: Human TGR5 Lum. cAMP Activity (EC50)
pEC50: −log10 of the molar value.

[
  {
    "COMPOUND": "O=C(CCCC1CCN(c2cc(N3CCC[C@@H](C(=O)NCCc4ccc(C(F)(F)F)cc4)C3)nc(C(F)(F)F)n2)CC1)NCCS(=O)(=O)O [Compound 336]",
    "SYSTEM TESTED": "human TGR5 receptor (Homo sapiens)",
    "ENDPOINT NAME": "pEC50",
    "MEASURED RESULT": "6.00 to 7.00"
  }
]

Find the measured pEC50 of O=C(NCCc1ccc(C(F)(F)F)cc1)[C@@H]1CCCN(c2cc(NC3CCOCC3)nc(C(F)(F)F)n2)C1 [Compound 326] and report it. 6.00 to 7.00

Find the measured pEC50 of CS(=O)(=O)Nc1cccc(-c2cc(N3CCC[C@H]3C(=O)NCCc3ccc(C#N)cc3)nc(C(F)(F)F)n2)c1 [Compound 153] and report it. 4.52 to 6.00

Find the measured pEC50 of O=C(NCCc1ccc(C(F)(F)F)cc1)[C@@H]1CCN1c1cc(N2CCC(CCCC3CCNCC3)CC2)nc(C(F)(F)F)n1 [Compound 275] and report it. > 7.00

Find the measured pEC50 of O=C(O)CCNC(=O)NCCC1CCN(c2cc(N3CCC[C@H]3C(=O)NCCc3ccc(-c4cccnc4)cc3)nc(C(F)(F)F)n2)CC1 [Compound 377] and report it. 6.00 to 7.00

Find the measured pEC50 of N#Cc1ccc(CCNC(=O)[C@@H]2CCCN2c2cc(N3CCC(CCNC(=O)NCCS(N)(=O)=O)CC3)nc(C(F)(F)F)n2)cc1 [Compound 80] and report it. > 7.00

Values compiled from patent US10654834B2.
